# Tested on: C. glabrata 2853
# assay: FICI checkerboard, β-aescin with antifungal drugs
# Type: cell-based, Candida glabrata
# assay-conditions: combination with β-aescin
// reported FICI per item
Quick one: just the number, no unit, thanks!

// known answers, use as guide
>>> value("C[C@@H]1[C@H](O)[C@@H](C)/C=C/C=C/C=C/C=C/C=C/C=C/C=C/[C@H](O[C@@H]2O[C@H](C)[C@@H](O)[C@H](N)[C@@H]2O)C[C@@H]2O[C@](O)(C[C@@H](O)C[C@@H](O)[C@H](O)CC[C@@H](O)C[C@@H](O)CC(=O)O[C@H]1C)C[C@H](O)[C@H]2C(=O)O")
2.5
>>> value("C[C@@H](c1ncncc1F)[C@](O)(Cn1cncn1)c1ccc(F)cc1F")
2.5
>>> value("CC[C@@H]([C@H](C)O)n1ncn(-c2ccc(N3CCN(c4ccc(OC[C@@H]5CO[C@@](Cn6cncn6)(c6ccc(F)cc6F)C5)cc4)CC3)cc2)c1=O")
0.562
>>> value("Nc1nc(=O)[nH]cc1F")
1.5

Lookup: Please give the measured FICI for this compound: OC(Cn1cncn1)(Cn1cncn1)c1ccc(F)cc1F
Found: 0.75

Lookup: What do you have for CC[C@H](C)C[C@H](C)CCCCCCCCC(=O)N[C@H]1C[C@@H](O)[C@@H](NCCN)NC(=O)[C@@H]2[C@@H](O)CCN2C(=O)[C@H]([C@H](O)CCN)NC(=O)[C@H]([C@H](O)[C@@H](O)c2ccc(O)cc2)NC(=O)[C@@H]2C[C@@H](O)CN2C(=O)[C@H]([C@@H](C)O)NC1=O ?
Found: 0.75

Lookup: What do you have for CCC(C)n1ncn(-c2ccc(N3CCN(c4ccc(OCC5COC(Cn6cncn6)(c6ccc(Cl)cc6Cl)O5)cc4)CC3)cc2)c1=O (centres unmarked) ?
Found: 1.004

Lookup: What do you have for CC(=O)N1CCN(c2ccc(OCC3COC(Cn4ccnc4)(c4ccc(Cl)cc4Cl)O3)cc2)CC1 (centres unmarked) ?
Found: 0.75

====

# Tested on: C. glabrata 2586 biofilm
# assay: Biofilm eradication on polystyrene, fluorescence microscopy (Syto9/PI)
# Assay type: cell-based, Candida glabrata
# assay-conditions: Nakaseomyces glabratus, 2586BIOFILM; AAB alone 2 μM; 72 h; read-out: Biofilm Viability [%] 2586 Live
// reported viability at 2 µM per item

>>> value("CCCCCCCCCCCCCCCC(=O)N(C)CCC[N+](C)(C)CC(=O)[O-] [C15]")
"2.33%"
>>> value("CCCCCCCCCCCCCC(=O)N(C)CCC[N+](C)(C)CC(=O)[O-] [C13]")
"4.57%"
>>> value("CCCCCCCCCC(=O)N(C)CCC[N+](C)(C)CC(=O)[O-] [C9]")
"3.01%"

From here, focus on the item given below.
Lookup: Please give the measured viability at 2 µM for this molecule: CCCCCCCCCCCC(=O)N(C)CCC[N+](C)(C)CC(=O)[O-] [C11]
Found: 4.45%

====

# Test system: C. glabrata 2853
# assay: Interaction of AABs (3 µM) with antifungal agents, modified checkerboard
# Format: cell-based, Candida glabrata
# assay-conditions: C13 at constant 3 µM, dilutions in µg/mL
readout-kind: MIC90 of antimycotic combined with C13
Quick one: just the number, no unit, thanks!

Lookup: Please give the measured MIC90 of antimycotic combined with C13 for this compound: Nc1nc(=O)[nH]cc1F
Found: 256

====

# Test system: C. glabrata ATCC 90030 biofilm
# assay: Biofilm eradication on polystyrene, fluorescence microscopy (Syto9/PI)
# Format: cell-based, Candida glabrata
# assay-conditions: Nakaseomyces glabratus, ATCC90030; AAB alone 2 μM; 72 h; read-out: Biofilm Viability [%] 90030 Live
// reported viability at 2 µM per item
Answer format: numeric, % implied, no suffix.

>>> value("CCCCCCCCCC(=O)N(C)CCC[N+](C)(C)CC(=O)[O-]")
23.8
>>> value("CCCCCCCCCCCCCCCC(=O)N(C)CCC[N+](C)(C)CC(=O)[O-]")
28.8
>>> value("CCCCCCCCCCCCCC(=O)N(C)CCC[N+](C)(C)CC(=O)[O-]")
6.55

Lookup: Under C. glabrata ATCC 90030 biofilm: viability at 2 µM value of CCCCCCCCCCCC(=O)N(C)CCC[N+](C)(C)CC(=O)[O-] ?
Found: 3.96

====

// reported TK (Krafft temperature) per item
# assay: Krafft temperature (TK)
# Format: physicochemical
Answer format: numeric, °C implied, no suffix.

>>> value("CCCCCCCCCCCCCC(=O)N(C)CCC[N+](C)(C)CC(=O)[O-]")
20.5

From here, focus on the item given below.
Lookup: Please give the measured TK (Krafft temperature) for this compound: CCCCCCCCCCCCCCCC(=O)N(C)CCC[N+](C)(C)CC(=O)[O-]
Found: 36.4

====

// reported MIC90 of antimycotic combined with C13 per item
# Test system: C. glabrata 2586
# assay: Interaction of AABs (3 µM) with antifungal agents, modified checkerboard
# Format: cell-based, Candida glabrata
# assay-conditions: C13 at constant 3 µM, dilutions in µg/mL
Quick one: just the number, no unit, thanks!

// known answers, use as guide
>>> value("CCC(C)n1ncn(-c2ccc(N3CCN(c4ccc(OCC5COC(Cn6cncn6)(c6ccc(Cl)cc6Cl)O5)cc4)CC3)cc2)c1=O (stereo not shown)")
4096
>>> value("Nc1nc(=O)[nH]cc1F")
512
>>> value("C[C@@H](c1ncncc1F)[C@](O)(Cn1cncn1)c1ccc(F)cc1F")
8

From here, focus on the item given below.
Lookup: Please give the measured MIC90 of antimycotic combined with C13 for this molecule: CC(=O)N1CCN(c2ccc(OCC3COC(Cn4ccnc4)(c4ccc(Cl)cc4Cl)O3)cc2)CC1 (stereo not shown)
Found: 16

====

# Tested on: C. glabrata 2853
# assay: Interaction of AABs (3 µM) with antifungal agents, modified checkerboard
# Assay type: cell-based, Candida glabrata
# assay-conditions: C13 3 µM
readout-kind: Multiplicity factor (MF) with C13
Quick one: just the number, no unit, thanks!

>>> value("C[C@@H](c1ncncc1F)[C@](O)(Cn1cncn1)c1ccc(F)cc1F")
2

Lookup: Please give the measured Multiplicity factor (MF) with C13 for this compound: CCC(C)n1ncn(-c2ccc(N3CCN(c4ccc(OCC5COC(Cn6cncn6)(c6ccc(Cl)cc6Cl)O5)cc4)CC3)cc2)c1=O (stereo not shown)
Found: 1

Lookup: What do you have for Nc1nc(=O)[nH]cc1F ?
Found: 1

Lookup: What do you have for OC(Cn1cncn1)(Cn1cncn1)c1ccc(F)cc1F ?
Found: 2

Lookup: What do you have for C[C@@H]1[C@H](O)[C@@H](C)/C=C/C=C/C=C/C=C/C=C/C=C/C=C/[C@H](O[C@@H]2O[C@H](C)[C@@H](O)[C@H](N)[C@@H]2O)C[C@@H]2O[C@](O)(C[C@@H](O)C[C@@H](O)[C@H](O)CC[C@@H](O)C[C@@H](O)CC(=O)O[C@H]1C)C[C@H](O)[C@H]2C(=O)O ?
Found: 2

====

# System: C. glabrata ATCC 90030
# assay: Interaction of AABs (3 µM) with antifungal agents, modified checkerboard
# Format: cell-based, Candida glabrata
# assay-conditions: C15 3 µM
readout-kind: Multiplicity factor (MF) with C15
Quick one: just the number, no unit, thanks!

// known answers, use as guide
>>> value("CC(=O)N1CCN(c2ccc(OCC3COC(Cn4ccnc4)(c4ccc(Cl)cc4Cl)O3)cc2)CC1 (stereo not shown) [Ketoconazole]")
64
>>> value("Nc1nc(=O)[nH]cc1F [5-Fluorocytosine]")
1
>>> value("C[C@@H](c1ncncc1F)[C@](O)(Cn1cncn1)c1ccc(F)cc1F [Voriconazole]")
64
>>> value("OC(Cn1cncn1)(Cn1cncn1)c1ccc(F)cc1F [Fluconazole]")
64
>>> value("CCC(C)n1ncn(-c2ccc(N3CCN(c4ccc(OCC5COC(Cn6cncn6)(c6ccc(Cl)cc6Cl)O5)cc4)CC3)cc2)c1=O (stereo not shown) [Itraconazole]")
1

From here, focus on the item given below.
Lookup: Please give the measured Multiplicity factor (MF) with C15 for this compound: C[C@@H]1[C@H](O)[C@@H](C)/C=C/C=C/C=C/C=C/C=C/C=C/C=C/[C@H](O[C@@H]2O[C@H](C)[C@@H](O)[C@H](N)[C@@H]2O)C[C@@H]2O[C@](O)(C[C@@H](O)C[C@@H](O)[C@H](O)CC[C@@H](O)C[C@@H](O)CC(=O)O[C@H]1C)C[C@H](O)[C@H]2C(=O)O [Amphotericin B]
Found: 4

====

# System: C. glabrata 2853
# assay: Interaction of AABs (3 µM) with antifungal agents, modified checkerboard
# Type: cell-based, Candida glabrata
# assay-conditions: C15 3 µM
readout-kind: Multiplicity factor (MF) with C15
Quick one: just the number, no unit, thanks!

// known answers, use as guide
>>> value("C[C@@H](c1ncncc1F)[C@](O)(Cn1cncn1)c1ccc(F)cc1F")
128
>>> value("OC(Cn1cncn1)(Cn1cncn1)c1ccc(F)cc1F")
16
>>> value("CCC(C)n1ncn(-c2ccc(N3CCN(c4ccc(OCC5COC(Cn6cncn6)(c6ccc(Cl)cc6Cl)O5)cc4)CC3)cc2)c1=O (stereo not shown)")
1
>>> value("CC(=O)N1CCN(c2ccc(OCC3COC(Cn4ccnc4)(c4ccc(Cl)cc4Cl)O3)cc2)CC1 (stereo not shown)")
4
>>> value("C[C@@H]1[C@H](O)[C@@H](C)/C=C/C=C/C=C/C=C/C=C/C=C/C=C/[C@H](O[C@@H]2O[C@H](C)[C@@H](O)[C@H](N)[C@@H]2O)C[C@@H]2O[C@](O)(C[C@@H](O)C[C@@H](O)[C@H](O)CC[C@@H](O)C[C@@H](O)CC(=O)O[C@H]1C)C[C@H](O)[C@H]2C(=O)O")
4

From here, focus on the item given below.
Lookup: Please give the measured Multiplicity factor (MF) with C15 for this compound: Nc1nc(=O)[nH]cc1F
Found: 1
